Test name: cancer stem cell viability inhibitors, primary screen, luminescence (AID 2717)
Test parameters: cancer stem cell-like cells viability, at 7.5 µM, stronger effect = higher value
Screen size: about 300,000 compounds; about 3,200 (1.1%) were called active. Many of the other results were omitted from the sample, so actives are more common in it than they were.
Kindly state inhibition for each of the entries shown.
Answers are plain numbers, in %.

Example results:
[[record]]
compound = "Cc1ccc(CSc2nc(-c3ccccc3)c(C#N)c(=O)[nH]2)cc1"
readout_value = 27.6

[[record]]
compound = "O=C1COc2ccc(C(=O)COC(=O)CCOc3ccccc3)cc2N1"
readout_value = 0.0702

[[record]]
compound = "N#Cc1c(-c2ccccc2)nc(SCc2cccc(C(F)(F)F)c2)[nH]c1=O"
readout_value = 105

[[record]]
compound = "CCOC(=O)CCCNC(=O)COC(=O)/C=C/c1ccc2c(c1)OCO2"
readout_value = -10.5

[[record]]
compound = "CCN1/C(=C/c2ccc3ccc(C)cc3[n+]2CC)Sc2ccccc21"
readout_value = 17.6


Record inhibition for all entries; do not skip any.
1. O=C1c2cccc3cc(Br)cc(c23)C(=O)N1Nc1ccccc1
2. COc1ccc(Oc2c(Cl)cnn(-c3ccccc3)c2=O)cc1

Result:
1: 6.61; 2: 22

Record inhibition for all entries; do not skip any.
1. CCN(CC)c1ccc(/C=N/NC(=O)CNC(=O)c2cccnc2)cc1
2. CN1CCN(C2Cc3ccc(Cl)cc3Sc3ccc(F)cc32)CC1 (stereo not drawn)
3. O=C(CSc1ncn[nH]1)N/N=C/c1ccc(F)cc1

Result:
[-7.16, 101, 8.65]

Record inhibition for all entries; do not skip any.
1. O=C(c1cnccn1)N1CCN(S(=O)(=O)c2cccc(Cl)c2)CC1
2. COc1ccc2c(c1)[C@H]1[C@H](CO2)[C@H](c2ccccc2)[C@]2(C)C(=O)Nc3cc(F)c(F)cc3C(=O)N12

Result:
1: -17.3; 2: 21.6

Record inhibition for all entries; do not skip any.
1. CC(C)C(NC(=O)c1c(F)cccc1F)C(=O)NNC(=O)c1ccccc1 (stereo not drawn)
2. N#Cc1c(-c2ccccc2)nc(SCc2ccc([N+](=O)[O-])cc2)[nH]c1=O
3. Cc1cc(N=Nc2ccc3ccccc3c2)ccc1O
4. C=CCC[C@H](Cc1ccc(F)cc1)C(=O)OC[C@H](C)NC(=O)[C@H](CC=C)CC(=O)N(CCO)Cc1ccccc1
5. O=C(/C=C/Sc1ncn[nH]1)c1ccc(Cl)cc1
6. O=C(NN=Cc1ccc(N2CCOCC2)cc1)c1cc2ccccc2cc1O
7. O=C(OCC(=O)c1cccs1)C1=COCCO1

Result:
[-4.36, 3.97, 112, -9.39, 112, 10.1, -0.0949]
